Reference for the values: PubChem BioAssay AID686978

- experiment-summary: qHTS for Inhibitors of human tyrosyl-DNA phosphodiesterase 1 (TDP1): qHTS in cells in absence of CPT; note: nearly all actives have a fitted effect of over 55% in size
- condition-summary: DT40 Tdp1-/- hTDP1 cells, no CPT, ATP luminescence, 48 h
- Protocol: Human tyrosyl-DNA phosphodiesterase 1 (TDP1) is a novel repair gene, and we propose to use it as a new target for anticancer drug development. […] For the primary screen, Tdp1-/-;hTDP1 cells will be exposed to small molecules in the presence or absence of CPT, and their growth kinetics will be evaluated after 48 hours by measuring ATP activity. […] The hit compounds will then be evaluated in the presence or absence of CPT using Tdp1-/- cells. […]
Out of some 420,000 compounds screened, about 64,000 (15%) were called active. Not shown: some 27% with an inconclusive outcome. Calls come from the whole dose curve; as a rule, active = well fitted inhibition curve with a large enough effect; inconclusive = small, poorly fitted or top-dose-only effect; inactive = flat fitted curve, though single readings scatter. The list is a sample of the results.
Classes used: active, inactive

1) COc1ccc(C(=O)NCc2cn3ccccc3n2)cc1 : inactive
2) O=C(CCCOc1ccc(Cl)cc1Cl)NNC(=O)C1CCC1 : inactive
3) COCC1CCCCN1C(=O)c1cc(COc2ccc(C)c(C)c2)on1 (centres undefined) : active
4) O=C1NC(=O)C(c2ccc(Cl)cc2)N1 (centres undefined) : inactive
5) COC(=O)c1ccc2nc(-c3ccc(Cl)cc3)c(Cc3cccc(F)c3)n2c1 : active
6) C=CCC(CC=C)(C(N)=O)c1ccccc1 : inactive
7) CCOC(=O)c1ccc(NC(=O)C2CC(=O)N(c3ccc4c(c3)OCCO4)C2)cc1 (centres undefined) : inactive
8) O=C(/C=N/O)Nc1ccccc1 : inactive
9) Cc1nc(COc2cc3oc(=O)cc(C)c3cc2Cl)cs1 : inactive
10) COC(=O)c1ccc(COC(=O)c2cnc(Cl)c(Cl)c2)cc1 : inactive
11) CC1CN(C(=S)Nc2ccc(Br)cc2Cl)CC(C)O1 (centres undefined) : inactive
12) Cc1ccc(C(c2sc3nc(C)nn3c2O)N2CCN(c3ccccc3)CC2)cc1 (centres undefined) : inactive
13) CCCCCc1c(-c2ccc(OC)c(OC)c2)ncn1CCc1ccccc1OC : active
14) CCC(=O)NCc1cc(-c2nn(C)c(=O)c3ccccc23)ccc1OC : inactive
15) CN(C)S(=O)(=O)c1ccc(C(=O)NCC(C)(C)N2CCOCC2)cc1 : inactive
16) CCN1CCN(C(=O)N[C@@H](C(=O)N[C@@H]2C(=O)N3C(C(=O)O)=C(CSc4nnnn4C)CS[C@H]23)c2ccc(O)cc2)C(=O)C1=O : inactive
17) CCOC(=O)CSc1nnc(-c2cccc(Br)c2)o1 : inactive
18) Cc1cc(C)cc(NS(=O)(=O)Cc2ccccc2)c1 : inactive
19) CCCOc1ccc(N2CC(C(=O)Nc3ccccn3)CC2=O)cc1 (centres undefined) : inactive
20) Cn1c(SCc2nc3ccccc3s2)nnc1-c1ccc2c(c1)OCO2 : inactive
21) Cn1ccnc1SCC(=O)Nc1ccc2c(c1)OCCO2 : inactive
22) COC(=O)c1ccc2nc(-c3ccc(F)cc3)c(Cc3ccc(C)cc3)n2c1 : inactive
23) CCN(CC)CCN(C)C(c1ccnc2ccccc12)c1nnnn1-c1ccc2c(c1)OCCO2 (centres undefined) : active
24) COC(=O)c1ccc2nc(-c3ccccc3)c(Cc3ccc(OC)cc3C)n2c1 : active
25) CCCCCc1c(-c2cccc(Br)c2)ncn1CCc1ccccc1OC : active
26) CCOC(=O)NNC(=O)c1ccc(Cl)cc1 : inactive
27) CCOc1ccc(CN2CCC(n3nccc3NC(=O)C3CC3)CC2)cc1CO : inactive
28) COC(=O)c1ccc(NC(=O)CSc2nncc3ccc(OC)c(OC)c23)cc1 : inactive
29) O=C(NC(c1ccc(Cl)cc1)c1cnccn1)C1CCN(Cc2ccc(Cl)cc2)CC1 (centres undefined) : active
30) CCc1nnc(NC(=O)C2CC(=O)N(c3ccc4c(c3)OCCO4)C2)s1 (centres undefined) : active
31) O=C(COC(=O)c1cccc(Cl)c1)Nc1ccc2[nH]c(=O)[nH]c2c1 : inactive
32) COC(=O)c1ccc2nc(-c3ccc(OC)c(OC)c3)c(Cc3ccccc3)n2c1 : active
33) COc1ccccc1C(=O)N[C@@H]1c2ccccc2C2(CCN(C(=O)c3csnn3)CC2)[C@H]1OC : inactive
34) O=C(NNS(=O)(=O)c1ccc(Cl)cc1)C1CCN(Cc2ccccc2)CC1 : inactive
35) Cc1ccc(CSCCNC(=O)CN(c2ccc(F)cc2)S(C)(=O)=O)cc1 : inactive
36) COc1ccc2c(c1)CCC/C2=N\OC(=O)c1ccccc1F : inactive
37) Cc1ccc(NC(=O)c2ccn(C(=O)Nc3ccccc3)n2)c(C)c1 : inactive
38) Clc1ccc(CN2CCCCCC2)cc1Cl : inactive
39) CCOC(=O)/C=C/CN(C(=O)OC(C)(C)C)S(=O)(=O)N1CC=CC1 : inactive
